Reported pEC50 values follow for various compounds
System: Jurkat cells
Experimental protocol: IL-2 secretion assay in CD3/CD28-activated Jurkat cells (AlphaLISA)
Type: cell-based
Run conditions: Homo sapiens, CD3/CD28 T Cell Activator, 24 h, IL-2 AlphaLISA
pEC50: −log10 of the molar value.
Value kind: pEC50

                                    compound  assay_system  experimental_result
 0  Cn1cncc1-c1c[nH]c2c(=O)n(-c3cccc([C@]4(c5nncn5C)C[C@@H](C)C4)c3)cc(C3CC3)c12 (single isomer, unassigned)  Jurkat cells         5.30 to 6.00
 1  C[C@@H]1CN(Cc2cc3c(C4CC4)cn(-c4cccc(C5(c6nncn6C)CC6(CC6)C5)c4)c(=O)c3[nH]2)CCO1  Jurkat cells         6.00 to 7.00
 2  C[C@H]1CCCN(Cc2cc3c(C4CC4)cn(-c4cccc([C@]5(c6nncn6C)C[C@@H](OC(F)F)C5)c4)c(=O)c3[nH]2)C1  Jurkat cells               > 7.00
 3  Cn1cnnc1CC1(c2cccc(-n3cc(C4CC4)c4cc(CN5CCC6(CC6)C5)[nH]c4c3=O)c2)COC1  Jurkat cells         6.00 to 7.00
 4  C[C@H]1CCCN(Cc2cc3c(C4CC4)cn(-c4cccc([C@H](c5nncn5C(F)F)C5CCC5)c4)c(=O)c3[nH]2)C1  Jurkat cells         6.00 to 7.00
 5  CC1CC(c2cccc(-n3cc(C4CC4)c4cc(CN5C[C@H]6C[C@@H]5CO6)[nH]c4c3=O)c2)(c2nncn2C)C1 (stereo partly drawn)  Jurkat cells         6.00 to 7.00
 6  CC1CC(c2cccc(-n3cc(C4CC4)c4cc(CN5CCC(F)(F)[C@H](C)C5)[nH]c4c3=O)c2)(c2nncn2C)C1 (stereo partly drawn)  Jurkat cells         6.00 to 7.00
 7  Cn1cnnc1C1(c2cccc(-n3cc(C4CC4)c4cc(CN[C@@H]5CCOC5)[nH]c4c3=O)c2)CC(F)(F)C1  Jurkat cells               < 5.30
 8  C[C@H]1CCCN(Cc2cc3c(C4CC4)cn(-c4cccc(C5(c6nncn6CC(F)F)CC6(CC6)C5)c4)c(=O)c3[nH]2)C1  Jurkat cells         6.00 to 7.00
 9  CC1CC(c2cccc(-n3cc(C4CC4)c4cc(CN5C[C@@H](F)C[C@H](F)C5)[nH]c4c3=O)c2)(c2nncn2C)C1 (stereo partly drawn)  Jurkat cells         5.30 to 6.00
10  Cn1cnnc1C1(c2cccc(-n3cc(C4CC4)c4cc(CNCC5(CO)CC5)[nH]c4c3=O)c2)CC(F)(F)C1  Jurkat cells         6.00 to 7.00
11  CC1CC(c2cccc(-n3cc(C4CC4)c4cc(CN5CCCC(F)(F)C5)[nH]c4c3=O)c2)(c2nncn2C)C1 (stereo not drawn)  Jurkat cells         5.30 to 6.00
12  C[C@H]1CCCN(Cc2nc3c(C4CC4)cn(-c4cccc(C5(c6nncn6C)CC(F)(F)C5)c4)c(=O)c3[nH]2)C1  Jurkat cells               > 7.00
13  Cn1cnnc1C1(c2cccc(-n3cc(C(F)(F)F)c4nc(CN5CCC(F)(F)C5)[nH]c4c3=O)c2)CC(F)(F)C1  Jurkat cells               < 5.30
14  CC1CC(c2cccc(-n3cc(C4CC4)c4cc(CN5C[C@H](F)C[C@H](F)C5)[nH]c4c3=O)c2)(c2nncn2C)C1 (stereo partly drawn)  Jurkat cells         5.30 to 6.00
15  COC(c1cccc(-n2cc(C3CC3)c3cc(CN4CCC[C@H](C)C4)[nH]c3c2=O)c1)c1nncn1C (stereo partly drawn)  Jurkat cells         6.00 to 7.00
16  CC1CC(c2cccc(-n3cc(C4CC4)c4cc[nH]c4c3=O)c2)(c2nncn2C)C1 (stereo not drawn)  Jurkat cells         5.30 to 6.00
17  CO[C@H]1C[C@@](c2cccc(-n3cc(C4CC4)c4cc(CN5CCC[C@H](C)C5)[nH]c4c3=O)c2)(c2nncn2C)C1  Jurkat cells               > 7.00
18  Cn1cnnc1C1(c2cccc(-n3cc(C4CC4)c4cc(CN5CCOC6(CC6)C5)[nH]c4c3=O)c2)CC(F)(F)C1  Jurkat cells         5.30 to 6.00
19  C[C@H]1CCCN(Cc2cc3c(C4CC4)cn(-c4cccc(C5(c6nnco6)CC(F)(F)C5)c4)c(=O)c3[nH]2)C1  Jurkat cells         6.00 to 7.00
20  CC1CC(c2cccc(-n3cc(C4CC4)c4cc(CN5CCC6(CC5)CC6)[nH]c4c3=O)c2)(c2nncn2C)C1 (stereo not drawn)  Jurkat cells               > 7.00
